PROPERTY_NAME: Ki (nM)
Respond with the bare value in nM.

Notebook entry, EP2 (Homo sapiens, UniProt P43116) assay: Ki of CCCCCc1ccc2c(C(=O)Nc3cccc(OCC(=O)O)c3)cccc2c1 [Example 2] = ?
383

Identify the measured Ki of CCCCCOc1ccc2c(C(=O)Nc3cccc(OCC(=O)O)c3)cccc2c1 [Example 15] for EP2 (Homo sapiens, UniProt P43116).
201

What is its Ki for EP2 (Homo sapiens, UniProt P43116)? Entry: Cc1ccc2c(C(=O)Nc3cccc(OCC(=O)O)c3)cccc2c1 [Example 7]
1190

Test system EP2 (Homo sapiens, UniProt P43116); read-out Ki; what value for CCc1ccc2c(C(=O)Nc3cccc(OCC(=O)O)c3)cccc2c1 [Example 6] ?
112

Provide the documented Ki with EP2 (Homo sapiens, UniProt P43116) as the system for CCCc1ccc2c(C(=O)Nc3cccc(OCC(=O)O)c3)cccc2c1 [Example 5]
Sequence (P43116 whole entry): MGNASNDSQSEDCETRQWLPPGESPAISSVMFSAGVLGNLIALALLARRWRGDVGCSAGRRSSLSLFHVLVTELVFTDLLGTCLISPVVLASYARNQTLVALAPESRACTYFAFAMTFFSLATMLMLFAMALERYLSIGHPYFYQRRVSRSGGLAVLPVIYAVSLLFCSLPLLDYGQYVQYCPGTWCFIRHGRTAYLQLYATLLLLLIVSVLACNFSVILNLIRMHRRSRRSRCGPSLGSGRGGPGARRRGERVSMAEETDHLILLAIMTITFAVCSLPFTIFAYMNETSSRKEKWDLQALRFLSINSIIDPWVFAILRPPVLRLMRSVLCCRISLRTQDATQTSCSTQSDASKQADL
30

Recorded Ki for CCCCCCc1ccc2c(C(=O)Nc3cccc(OCC(=O)O)c3)cccc2c1 [Example 1] with EP2 (Homo sapiens, UniProt P43116), please?
99
